For each entry below, report its initial Tl+ fluorescence quench rate value.
system: gramicidin D channels in DC22:1PC lipid vesicles (bilayer-modifying potency); experiment: initial Tl+ fluorescence quench rate relative to no-drug control (NormRate, gramicidin monomer-dimer shift) (ratio (fold of control)); higher = stronger bilayer-modifying effect (equilibrium shifted toward conducting dimers), active = 1.5 or more; conditions: 10 µM; lipid concentration 50 µM; temperature: 25 °C
Answers are plain numbers.

Here's what some known entries look like.
O=C(NCCN1CCCC1)c1cc(NCCCCN2CCC(F)(F)CC2)nc2ccc(Cl)cc12    1.92
c1ccc(C[C@@H]2CN(c3nccc(Oc4ccc(-n5ccnc5)cc4)n3)CCN2)cc1    1.26
Cc1nn(C(=O)Nc2cccc(C(F)(F)F)c2)c(C)c1Sc1ncccn1    2

Batch lookup, initial Tl+ fluorescence quench rate per entry.
1. COc1ccc(O[C@H](C)C(=O)Nc2ccc(Cl)cc2C)cc1
2. CCn1ncc2c(NC3CCOCC3)c(CNC(=O)c3ccnn3C)c(C)nc21
3. C[C@H]1COC2(CCN(c3nc(=O)c4cc(C(F)(F)F)cc([N+](=O)[O-])c4s3)CC2)O1
4. CNC(=O)c1cc(S(=O)(=O)N2CCN(c3ccccn3)CC2)cs1
5. Cc1cccc(-c2nc(Nc3ccncn3)c3sccc3n2)n1
6. COc1ccc(-c2nnc3ccc(-c4cccc(C(C)C)c4)cn23)cc1OC

1.05
1.07
1.08
1.07
1.81
2.38

Batch lookup, initial Tl+ fluorescence quench rate per entry.
1. NCCC[C@](N)(C(=O)O)C(F)F
2. CCCc1ccc(S(=O)(=O)Nc2ccc(CN3CCN(CC4CC4)CC3)cc2)cc1

1. 1.07
2. 1.42

Batch lookup, initial Tl+ fluorescence quench rate per entry.
1. COc1ccc(C2=NN(C3CCCCCC3)C(=O)C2(C)C)cc1OCCCCOc1ccc(-c2nn[nH]n2)cc1
2. CC[C@H](NC(=O)c1ccccc1NC(=O)c1ccc(C)cc1)C(=O)OC
3. C[C@H](C(=O)Nc1ccc2oc(-c3ccncc3)nc2c1)c1ccccc1
4. COc1ccc(-c2nn(C(C)C)c3ncnc(N)c23)cc1OC
5. Cc1ccc2[nH]c([C@H]3CCCNC3)c(-c3ccncc3)c2c1
6. O=C(C1CCCCC1)N1CC(=O)N2CCc3ccccc3[C@@H]2C1
7. Cc1cc(NCC(C)C)c2n[nH]c(-c3ccccc3)c2n1

1: 9.05; 2: 1.32; 3: 1.09; 4: 1.01; 5: 1.42; 6: 1.04; 7: 1.11

Batch lookup, initial Tl+ fluorescence quench rate per entry.
1. CCS(=O)(=O)N(Cc1ccco1)Cc1cc2ccc(C)cc2nc1O
2. Cc1[nH]c2ccccc2c1[C@@H](c1cccs1)N1CCN(C)CC1
3. COc1cc(N[C@H](C)CCCN)c2ncccc2c1

1. 1.26
2. 1.44
3. 1.02
